# assayed_target: Transcription initiation factor TFIID subunit 1 (Homo sapiens, UniProt P21675)
# Sequence (P21675 whole entry, the tested form may be a part): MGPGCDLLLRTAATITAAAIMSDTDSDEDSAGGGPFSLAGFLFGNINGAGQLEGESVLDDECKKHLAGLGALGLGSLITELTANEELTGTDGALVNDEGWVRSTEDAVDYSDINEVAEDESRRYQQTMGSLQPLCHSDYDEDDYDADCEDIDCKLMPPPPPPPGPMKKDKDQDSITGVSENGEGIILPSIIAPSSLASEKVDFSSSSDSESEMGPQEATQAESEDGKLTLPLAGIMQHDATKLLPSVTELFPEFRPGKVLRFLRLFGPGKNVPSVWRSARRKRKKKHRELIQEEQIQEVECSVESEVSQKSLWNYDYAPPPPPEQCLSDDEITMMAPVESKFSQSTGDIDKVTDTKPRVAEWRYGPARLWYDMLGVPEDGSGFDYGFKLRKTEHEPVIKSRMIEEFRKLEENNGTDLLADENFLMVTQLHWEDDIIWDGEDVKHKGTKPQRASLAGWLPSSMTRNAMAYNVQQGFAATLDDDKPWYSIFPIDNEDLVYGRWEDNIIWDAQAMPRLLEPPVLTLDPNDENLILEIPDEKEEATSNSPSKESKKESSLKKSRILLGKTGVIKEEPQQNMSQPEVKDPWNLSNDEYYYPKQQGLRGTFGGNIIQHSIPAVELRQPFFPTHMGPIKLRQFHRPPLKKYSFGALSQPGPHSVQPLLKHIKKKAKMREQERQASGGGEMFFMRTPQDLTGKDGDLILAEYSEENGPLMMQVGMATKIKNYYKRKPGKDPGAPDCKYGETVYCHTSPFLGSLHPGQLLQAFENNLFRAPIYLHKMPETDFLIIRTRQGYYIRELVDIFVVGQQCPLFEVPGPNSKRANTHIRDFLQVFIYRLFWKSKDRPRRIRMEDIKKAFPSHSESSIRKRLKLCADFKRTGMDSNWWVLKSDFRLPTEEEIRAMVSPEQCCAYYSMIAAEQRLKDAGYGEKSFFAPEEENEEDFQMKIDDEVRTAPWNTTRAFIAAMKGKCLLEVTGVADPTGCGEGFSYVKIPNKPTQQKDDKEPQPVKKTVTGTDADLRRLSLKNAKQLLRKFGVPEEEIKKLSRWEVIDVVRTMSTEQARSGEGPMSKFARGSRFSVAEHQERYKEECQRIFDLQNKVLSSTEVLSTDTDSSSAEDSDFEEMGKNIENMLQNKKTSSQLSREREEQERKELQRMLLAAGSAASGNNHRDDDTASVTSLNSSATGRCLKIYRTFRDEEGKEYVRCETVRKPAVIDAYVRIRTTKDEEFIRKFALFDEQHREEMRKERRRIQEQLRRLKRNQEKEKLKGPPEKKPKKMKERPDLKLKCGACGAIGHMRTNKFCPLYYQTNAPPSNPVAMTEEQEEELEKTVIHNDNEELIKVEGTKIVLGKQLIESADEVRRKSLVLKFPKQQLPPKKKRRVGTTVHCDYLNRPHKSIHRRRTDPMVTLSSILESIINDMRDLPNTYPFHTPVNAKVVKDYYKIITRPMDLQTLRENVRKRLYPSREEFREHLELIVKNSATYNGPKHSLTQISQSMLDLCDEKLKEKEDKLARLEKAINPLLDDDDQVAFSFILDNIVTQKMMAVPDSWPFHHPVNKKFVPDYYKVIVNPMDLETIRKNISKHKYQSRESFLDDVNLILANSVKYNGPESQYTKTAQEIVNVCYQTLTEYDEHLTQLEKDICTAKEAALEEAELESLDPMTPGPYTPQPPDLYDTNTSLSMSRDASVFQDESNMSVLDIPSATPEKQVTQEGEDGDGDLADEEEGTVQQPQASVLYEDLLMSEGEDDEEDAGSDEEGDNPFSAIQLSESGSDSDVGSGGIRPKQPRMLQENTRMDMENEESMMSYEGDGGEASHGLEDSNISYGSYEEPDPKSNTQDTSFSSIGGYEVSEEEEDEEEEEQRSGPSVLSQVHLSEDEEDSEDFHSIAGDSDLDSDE
# measurement_notes: Displacement of biotinylated probe from human TAF1 bromodomain 2 (1522 to 1656 residues) expressed in Escherichia coli BL21 (DE3) by alphascreen assay
Can you tell me IC50 for the items I'm about to list?
Return type: number; implicit unit nM.

// query # lookup: IC50 of "C=CCCN1C(=O)[C@@H](C)N(C2CCOCC2)c2nc(Nc3ccc(C(=O)NC4CCN(C)CC4)cc3OC)ccc21"
// result 82

// query I would be grateful if you could share the reported IC50 for "COc1cc(C(=O)N2CCC(O)CC2)ccc1Nc1ccc2c(n1)N(Cc1ccccc1)[C@H](C)C(=O)N2C" .
// result 720

// query Would you kindly share the measured IC50 for "CC(C)Oc1cc(C(=O)NC2CCN(C)CC2)ccc1Nc1ccc2c(n1)N(C1CCCC1)[C@H](C)C(=O)N2C" ?
// result 89

The values you see were collected from ChEMBL document CHEMBL4304835.
